meta.source: patent US20240041042A1

Tested on: Polygonum convolvulus (POLCO)
Test: Post-emergence herbicidal action against POLCO
Type: in vivo
Conditions: dosage 320 g/ha
MEASURED QUANTITY: Post-emergence action against POLCO in %

{"MOLECULE": "C[C@@H](Oc1nn(-c2ccnc(Cl)c2)c(-c2ccc(F)nc2)c1Br)C(=O)O [III-30]", "MEASURED QUANTITY": "Post-emergence action against POLCO in %", "RESULT": "90%"}

Q) // fetch Post-emergence action against POLCO in % given entry C[C@@H](Oc1nn(-c2ccccn2)c(-c2cncnc2)c1Cl)C(=O)O [Example I-20]
A) 80%

Q) // fetch Post-emergence action against POLCO in % given entry COC(=O)[C@@H](C)Oc1nn(-c2ncccc2F)c(-c2ccc(F)nc2)c1Br [Example I-05]
A) 90%

Q) // fetch Post-emergence action against POLCO in % given entry COC(=O)[C@@H](C)Oc1nn(-c2ncccc2F)c(-c2cccnc2)c1Br [Example I-03]
A) 90%
